# EXPERIMENT_DESCRIPTION: In vivo pharmacokinetics in SD rats
# EXPERIMENTAL_CONDITIONS: Sprague-Dawley, rat, in vivo, iv, 1 mg/kg
Mark label 1 for reported MRT inf of 40 min or greater; mark label 0 for anything smaller.

Worked examples follow.
[2H]C([2H])([2H])NC(=O)c1ccc2c(cc1=O)[C@@H](NC(C)=O)CCc1cc(OC)c(OC)c(OC)c1-2	label 0
CCNC(=O)c1ccc2c(cc1=O)[C@@H](NC(C)=O)CCc1cc(OC)c(OC)c(OC)c1-2	label 0
COc1cc2c(c(OC)c1OC)-c1ccc(C(=O)Nc3ccccc3)c(=O)cc1[C@@H](NC(C)=O)CC2	label 1
CNC(=O)c1ccc2c(cc1=O)[C@@H](NC(C)=O)CCc1cc(OC)c(OC)c(OC)c1-2	label 0

Consider the record given below.
[Q] Please indicate if the recorded MRT inf for [2H]C([2H])([2H])Oc1c(OC)c(OC)cc2c1-c1ccc(C(=O)NC)c(=O)cc1[C@@H](NC(C)=O)CC2 meets or exceeds 40 min.
[A] label 1

* * *

Measured Vd, listed per entry for reference.
# EXPERIMENT_DESCRIPTION: In vivo pharmacokinetics in SD rats
# EXPERIMENTAL_CONDITIONS: Sprague-Dawley, rat, in vivo, iv, 1 mg/kg
# Procedure: Compound stock solution preparation: an appropriate amount of solid powder of the compounds were weighed separately, a certain amount of DMSO was added and 20 mg/mL of stock solution was obtained under vortex ultrasound. […] The blood samples were centrifuged at 4° C. for 5 min at 2,000 g to separate the plasma. The plasma samples were analyzed by LC/MS/MS to detect the concentration of each test compound in the plasma samples. […]
Record the value in L/kg, omitting the unit from your answer.

CNC(=O)c1ccc2c(cc1=O)[C@@H](NC(C)=O)CCc1cc(OC)c(OC)c(OC)c1-2 [Compound 48]	1.11
[2H]C([2H])([2H])Oc1cc2c(c(OC)c1OC([2H])([2H])[2H])-c1ccc(C(=O)NC)c(=O)cc1[C@@H](NC(C)=O)CC2 [Compound 124]	0.864
CCNC(=O)c1ccc2c(cc1=O)[C@@H](NC(C)=O)CCc1cc(OC)c(OC)c(OC)c1-2 [Compound 55]	1.1
COc1cc2c(c(OC)c1OC)-c1ccc(C(=O)Nc3ccccc3)c(=O)cc1[C@@H](NC(C)=O)CC2 [Compound 58]	1.44
[2H]C([2H])([2H])NC(=O)c1ccc2c(cc1=O)[C@@H](NC(C)=O)CCc1cc(OC)c(OC)c(OC)c1-2 [Compound 56]	0.977

Now for another entry.
[Q] I am curious: what Vd value has been reported for [2H]C([2H])([2H])Oc1c(OC)c(OC)cc2c1-c1ccc(C(=O)NC)c(=O)cc1[C@@H](NC(C)=O)CC2 [Compound 132] ?
[A] 1.39

* * *

# EXPERIMENT_DESCRIPTION: In vivo pharmacokinetics in SD rats
# EXPERIMENTAL_CONDITIONS: Sprague-Dawley, rat, in vivo; Intravenous injection - 1 mg/kg; read-out: AUCINF
Measured AUC(0-inf), listed per entry for reference.
Answer by giving the amount and then stating its unit.

[Q] I am curious: what AUC(0-inf) value has been reported for CNC(=O)c1ccc2c(cc1=O)[C@@H](NC(C)=O)CCc1cc3c(c(OC)c1-2)OCO3 ?
[A] 587 ng·h/mL

[Q] I am curious: what AUC(0-inf) value has been reported for COc1cc2c(c(OC)c1OC)-c1ccc(OC)c(=O)cc1[C@@H](NC(C)=O)CC2 [colchicine, reference compound] ?
[A] 567 ng·h/mL

Source of measurements: patent US20250129012A1
